- target-system: JAK1 (Homo sapiens (Human), UniProt P23458)
- Sequence (P23458 whole entry): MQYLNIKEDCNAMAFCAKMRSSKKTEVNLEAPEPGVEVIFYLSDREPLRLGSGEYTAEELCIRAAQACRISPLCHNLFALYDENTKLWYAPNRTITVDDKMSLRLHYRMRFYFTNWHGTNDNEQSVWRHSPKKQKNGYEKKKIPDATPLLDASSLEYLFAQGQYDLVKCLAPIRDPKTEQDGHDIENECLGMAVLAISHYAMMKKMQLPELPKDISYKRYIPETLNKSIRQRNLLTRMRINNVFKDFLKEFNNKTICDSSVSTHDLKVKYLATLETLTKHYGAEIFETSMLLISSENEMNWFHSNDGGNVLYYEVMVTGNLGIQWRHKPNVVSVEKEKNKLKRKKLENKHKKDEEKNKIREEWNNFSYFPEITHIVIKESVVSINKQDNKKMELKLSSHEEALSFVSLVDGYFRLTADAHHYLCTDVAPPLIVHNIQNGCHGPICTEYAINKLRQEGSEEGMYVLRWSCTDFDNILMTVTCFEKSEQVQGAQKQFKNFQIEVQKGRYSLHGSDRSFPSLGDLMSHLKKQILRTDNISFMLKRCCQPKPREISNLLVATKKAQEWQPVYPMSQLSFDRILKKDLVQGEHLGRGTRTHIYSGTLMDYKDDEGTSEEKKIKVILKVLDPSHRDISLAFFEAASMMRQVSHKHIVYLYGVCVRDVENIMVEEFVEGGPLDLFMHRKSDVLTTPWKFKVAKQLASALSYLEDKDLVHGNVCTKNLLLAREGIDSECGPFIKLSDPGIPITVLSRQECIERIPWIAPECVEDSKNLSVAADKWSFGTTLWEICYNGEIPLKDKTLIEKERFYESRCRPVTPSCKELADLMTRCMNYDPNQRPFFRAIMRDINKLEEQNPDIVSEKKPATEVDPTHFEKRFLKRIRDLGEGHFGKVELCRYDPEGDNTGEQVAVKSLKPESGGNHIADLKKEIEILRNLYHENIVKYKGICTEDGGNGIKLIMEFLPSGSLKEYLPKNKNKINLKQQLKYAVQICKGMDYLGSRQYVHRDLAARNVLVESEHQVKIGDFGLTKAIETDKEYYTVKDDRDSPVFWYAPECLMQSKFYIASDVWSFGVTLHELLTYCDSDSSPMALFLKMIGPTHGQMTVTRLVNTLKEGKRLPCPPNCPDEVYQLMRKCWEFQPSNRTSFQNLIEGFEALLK
- assay-overview: Analysis of JAK1 activity inhibition ability (ADP-Glo Kinase Assay)
- Assay type: biochemical
- condition-details: JAK1 enzyme, ADP-Glo luminescence, ATP 250 uM, IRS-itide substrate, 30° C. 40 minutes; read-out: IC50
pIC50: −log10 of the molar value.
Measured pIC50 of individual entries

Below are worked cases with known answers.
- compound: "C[C@H]1CC(Nc2ccc(-c3cc(NC(=O)C4CC4)nc4[nH]ccc34)cc2)CCN1C(=O)Nc1ccc(F)cc1F (stereo partly drawn)"
  pIC50: "6.70 to 7.70"
- compound: "CCNC(=O)Cc1ccc(-c2cc(NC(=O)C3CC3)nc3[nH]ccc23)cc1"
  pIC50: "6.70 to 7.70"
- compound: "O=C(Nc1cc(-c2ccc(NS(=O)(=O)C(F)F)cc2)c2cc[nH]c2n1)C1CC1"
  pIC50: "6.70 to 7.70"
- compound: "CC1CN(C(=O)c2cccc(CCN3C(=O)COCC3=O)c2)CC=C1c1cc(NC(=O)C2CC2)nc2[nH]ccc12 (stereo not drawn)"
  pIC50: "< 6.70"
- compound: "N#CC1COCCN1C(=O)Cc1ccc(-c2cc(NC(=O)C3CC3)nc3[nH]ccc23)cc1 (stereo not drawn)"
  pIC50: "6.70 to 7.70"

**Query** Please give the measured pIC50 for this compound: NC(=O)c1ccc(S(=O)(=O)Nc2ccc(-c3nc(NC(=O)C4CC4)nc4[nH]ccc34)cc2)cc1
**Result** < 6.70

**Query** Please give the measured pIC50 for this compound: O=C(Nc1cc(-c2ccc(NS(=O)(=O)C3CS(=O)(=O)C3)cc2)c2cc[nH]c2n1)C1CC1
**Result** > 7.70
